So I've got a bunch of sequences here, and I need their protein stability index values.
# Test system: Saccharomyces cerevisiae
# Experiment Summary: protein stability index of tFT-peptide fusion (C-terminal peptide) (PSI (0-1 scale)); higher = more stable (slower turnover)
# Protocol Conditions: genetic background: wild type; temperature: 30 C
Number only, no unit.

Suppose we examine the sequence PSYEMRYNKNER [YBL065W C-terminal 12 aa] ; what protein stability index value has been reported?
0.715

Suppose we examine the sequence IFYLRFPSYIRG [YJR151W-A C-terminal 12 aa] ; what protein stability index value has been reported?
0.615

Suppose we examine the sequence DNFMNNSDIFQN [TGL5 C-terminal 12 aa] ; what protein stability index value has been reported?
0.686

Suppose we examine the sequence SDVISEESYNEA [SVF1 C-terminal 12 aa] ; what protein stability index value has been reported?
0.694

###

# System: Saccharomyces cerevisiae
# Experiment Summary: protein stability index of tFT-peptide fusion (C-terminal peptide) (PSI (0-1 scale)); higher = more stable (slower turnover)
# Protocol Conditions: genetic background: wild type; temperature: 30 C
Metric: protein stability index
Number only, no unit.

Suppose we examine the sequence GRCIPSFVLPRY ; what protein stability index value has been reported?
0.693

Suppose we examine the sequence CRTTDFQCTIGN ; what protein stability index value has been reported?
0.683

Suppose we examine the sequence IWLHFKGSRSLP ; what protein stability index value has been reported?
0.703

Suppose we examine the sequence RLGGGGCVWVRG ; what protein stability index value has been reported?
0.683

Suppose we examine the sequence KKKGDAKNKKKQ ; what protein stability index value has been reported?
0.714

Suppose we examine the sequence RRPSSCSPLPLY ; what protein stability index value has been reported?
0.695

Suppose we examine the sequence PPASLRRLLPPP ; what protein stability index value has been reported?
0.654

Suppose we examine the sequence VPPPVCAVPPPL ; what protein stability index value has been reported?
0.684

Suppose we examine the sequence VMKILQVGDVYN ; what protein stability index value has been reported?
0.752

Suppose we examine the sequence PPPPRVLSPAWS ; what protein stability index value has been reported?
0.649

Suppose we examine the sequence NARMPPHIVAGI ; what protein stability index value has been reported?
0.64

Suppose we examine the sequence YNLASGIEVPID ; what protein stability index value has been reported?
0.664

Suppose we examine the sequence VVSVQHEVIIFL ; what protein stability index value has been reported?
0.611

Suppose we examine the sequence RPFGRPTSMRHA ; what protein stability index value has been reported?
0.616

Suppose we examine the sequence SSVLWVMFVFFY ; what protein stability index value has been reported?
0.436

Suppose we examine the sequence GVGAPGARGVWG ; what protein stability index value has been reported?
0.748

Suppose we examine the sequence PPPPSLLPPSPS ; what protein stability index value has been reported?
0.702

Suppose we examine the sequence QGGLCGVYGWSL ; what protein stability index value has been reported?
0.68

Suppose we examine the sequence PPSPLPPTPSHS ; what protein stability index value has been reported?
0.737

Suppose we examine the sequence VPYFRSMSSLSI ; what protein stability index value has been reported?
0.635

Suppose we examine the sequence RPASSYPPHSPT ; what protein stability index value has been reported?
0.767

Suppose we examine the sequence WGGCGSVGRGGA ; what protein stability index value has been reported?
0.739

Suppose we examine the sequence TSWGSRWLPYAS ; what protein stability index value has been reported?
0.665

Suppose we examine the sequence SPTPINALRPPT ; what protein stability index value has been reported?
0.695

Suppose we examine the sequence QSNPAERASSRL ; what protein stability index value has been reported?
0.692

Suppose we examine the sequence LIAGLNLASYGL ; what protein stability index value has been reported?
0.643

Suppose we examine the sequence LPLLLFYLPIIW ; what protein stability index value has been reported?
0.464

Suppose we examine the sequence VEFGAPGFVEEW ; what protein stability index value has been reported?
0.734

Suppose we examine the sequence FISKHHPLVPPS ; what protein stability index value has been reported?
0.719

Suppose we examine the sequence GPAGGGRLECGV ; what protein stability index value has been reported?
0.716

Suppose we examine the sequence KQLPVLSAEVLS ; what protein stability index value has been reported?
0.648

Suppose we examine the sequence LHAPFPLPPPPP ; what protein stability index value has been reported?
0.647

Suppose we examine the sequence CLARPVFFSFIG ; what protein stability index value has been reported?
0.559

Suppose we examine the sequence EDSRATNERGRT ; what protein stability index value has been reported?
0.704

Suppose we examine the sequence PPSPSLRSLPRP ; what protein stability index value has been reported?
0.626

Suppose we examine the sequence FSSSASNSSWPY ; what protein stability index value has been reported?
0.721

Suppose we examine the sequence RPTPSAPHRTRI ; what protein stability index value has been reported?
0.735

Suppose we examine the sequence ASFVPPYLPSSM ; what protein stability index value has been reported?
0.75

Suppose we examine the sequence ISCVLSTVGVGH ; what protein stability index value has been reported?
0.663

Suppose we examine the sequence RFPLLPLLRPPP ; what protein stability index value has been reported?
0.649

Suppose we examine the sequence GSRVRGVMWSFL ; what protein stability index value has been reported?
0.771

Suppose we examine the sequence RDLLYHNCRNMI ; what protein stability index value has been reported?
0.695

Suppose we examine the sequence ATQTGFGGGGPM ; what protein stability index value has been reported?
0.689

Suppose we examine the sequence LRLTCRPWGLFF ; what protein stability index value has been reported?
0.638

Suppose we examine the sequence DFFPVSGLANEH ; what protein stability index value has been reported?
0.636

Suppose we examine the sequence HAPRSPCLPFPP ; what protein stability index value has been reported?
0.687

Suppose we examine the sequence PAPPPPLPLHPR ; what protein stability index value has been reported?
0.664

Suppose we examine the sequence LRFLVVTGSSCS ; what protein stability index value has been reported?
0.665

Suppose we examine the sequence CGLLSALSCLVF ; what protein stability index value has been reported?
0.511

Suppose we examine the sequence RTKENYKRRKEK ; what protein stability index value has been reported?
0.702

Suppose we examine the sequence RLLSPPPPPPPV ; what protein stability index value has been reported?
0.701

Suppose we examine the sequence GFSLLGPFAFWV ; what protein stability index value has been reported?
0.688
